- Test system: kochia (Kochia scoparia)
- experimentNotes: Test A postemergence, kochia
- Assay type: in vivo
- conditions: Bassia scoparia, post-emergence, 240 h, 31 g ai/ha, 0 to 100 scale (0 no effect, 100 complete control), read-out: Plant response rating, Kochia

{"compound": "O=C1OC(CCC(F)(F)F)Cc2c(Oc3ncc(Cl)cn3)cccc21 (stereo not shown)", "pest or weed control at 31 g/ha [%]": 20}
{"compound": "CCCC1OC(=O)Cc2cccc(Oc3ncc(Cl)cn3)c21 (stereo not shown)", "pest or weed control at 31 g/ha [%]": 20}
{"compound": "O=C1O[C@@H](CCCC(F)(F)F)c2c(Oc3ncc(Cl)cn3)cccc21", "pest or weed control at 31 g/ha [%]": 0}
{"compound": "FC(F)(F)CCCC1OCCc2cccc(Oc3ncc(Cl)cn3)c21 (stereo not shown)", "pest or weed control at 31 g/ha [%]": 10}
{"compound": "FC(F)(F)CCC1COc2cccc(Oc3ncc(Cl)cn3)c21 (stereo not shown)", "pest or weed control at 31 g/ha [%]": 30}
{"compound": "O=C1CC(CCC(F)(F)F)c2c(Oc3ncc(Cl)cn3)cccc21 (stereo not shown)", "pest or weed control at 31 g/ha [%]": 20}
{"compound": "O=C1Cc2cccc(Oc3ncc(Cl)cn3)c2C(CCC(F)(F)F)O1 (stereo not shown)", "pest or weed control at 31 g/ha [%]": 20}
{"compound": "O=C1O[C@@H](CCC(F)(F)F)c2c(Oc3ncc(Cl)cn3)cccc21", "pest or weed control at 31 g/ha [%]": 0}
{"compound": "FC(F)(F)CC[C@@H]1OCc2cccc(Oc3ncc(Cl)cn3)c21", "pest or weed control at 31 g/ha [%]": 20}
{"compound": "FC(F)(F)CC[C@H]1OCc2cccc(Oc3ncc(Cl)cn3)c21", "pest or weed control at 31 g/ha [%]": 90}
{"compound": "O=C1c2cccc(Oc3ncc(Cl)cn3)c2C1CCCC(F)(F)F (stereo not shown)", "pest or weed control at 31 g/ha [%]": 40}
{"compound": "O=C1OC(CCC(F)(F)F)c2c(Oc3ncc(Cl)cn3)cccc21 (stereo not shown)", "pest or weed control at 31 g/ha [%]": 90}
{"compound": "O=C1O[C@H](CCCC(F)(F)F)c2c(Oc3ncc(Cl)cn3)cccc21", "pest or weed control at 31 g/ha [%]": 90}
